Numbers sourced from paper doi:10.1101/2023.09.11.557162v4.

# TEST_SYSTEM: SMARCA4 (Homo sapiens)
# Sequence (P51532 whole entry): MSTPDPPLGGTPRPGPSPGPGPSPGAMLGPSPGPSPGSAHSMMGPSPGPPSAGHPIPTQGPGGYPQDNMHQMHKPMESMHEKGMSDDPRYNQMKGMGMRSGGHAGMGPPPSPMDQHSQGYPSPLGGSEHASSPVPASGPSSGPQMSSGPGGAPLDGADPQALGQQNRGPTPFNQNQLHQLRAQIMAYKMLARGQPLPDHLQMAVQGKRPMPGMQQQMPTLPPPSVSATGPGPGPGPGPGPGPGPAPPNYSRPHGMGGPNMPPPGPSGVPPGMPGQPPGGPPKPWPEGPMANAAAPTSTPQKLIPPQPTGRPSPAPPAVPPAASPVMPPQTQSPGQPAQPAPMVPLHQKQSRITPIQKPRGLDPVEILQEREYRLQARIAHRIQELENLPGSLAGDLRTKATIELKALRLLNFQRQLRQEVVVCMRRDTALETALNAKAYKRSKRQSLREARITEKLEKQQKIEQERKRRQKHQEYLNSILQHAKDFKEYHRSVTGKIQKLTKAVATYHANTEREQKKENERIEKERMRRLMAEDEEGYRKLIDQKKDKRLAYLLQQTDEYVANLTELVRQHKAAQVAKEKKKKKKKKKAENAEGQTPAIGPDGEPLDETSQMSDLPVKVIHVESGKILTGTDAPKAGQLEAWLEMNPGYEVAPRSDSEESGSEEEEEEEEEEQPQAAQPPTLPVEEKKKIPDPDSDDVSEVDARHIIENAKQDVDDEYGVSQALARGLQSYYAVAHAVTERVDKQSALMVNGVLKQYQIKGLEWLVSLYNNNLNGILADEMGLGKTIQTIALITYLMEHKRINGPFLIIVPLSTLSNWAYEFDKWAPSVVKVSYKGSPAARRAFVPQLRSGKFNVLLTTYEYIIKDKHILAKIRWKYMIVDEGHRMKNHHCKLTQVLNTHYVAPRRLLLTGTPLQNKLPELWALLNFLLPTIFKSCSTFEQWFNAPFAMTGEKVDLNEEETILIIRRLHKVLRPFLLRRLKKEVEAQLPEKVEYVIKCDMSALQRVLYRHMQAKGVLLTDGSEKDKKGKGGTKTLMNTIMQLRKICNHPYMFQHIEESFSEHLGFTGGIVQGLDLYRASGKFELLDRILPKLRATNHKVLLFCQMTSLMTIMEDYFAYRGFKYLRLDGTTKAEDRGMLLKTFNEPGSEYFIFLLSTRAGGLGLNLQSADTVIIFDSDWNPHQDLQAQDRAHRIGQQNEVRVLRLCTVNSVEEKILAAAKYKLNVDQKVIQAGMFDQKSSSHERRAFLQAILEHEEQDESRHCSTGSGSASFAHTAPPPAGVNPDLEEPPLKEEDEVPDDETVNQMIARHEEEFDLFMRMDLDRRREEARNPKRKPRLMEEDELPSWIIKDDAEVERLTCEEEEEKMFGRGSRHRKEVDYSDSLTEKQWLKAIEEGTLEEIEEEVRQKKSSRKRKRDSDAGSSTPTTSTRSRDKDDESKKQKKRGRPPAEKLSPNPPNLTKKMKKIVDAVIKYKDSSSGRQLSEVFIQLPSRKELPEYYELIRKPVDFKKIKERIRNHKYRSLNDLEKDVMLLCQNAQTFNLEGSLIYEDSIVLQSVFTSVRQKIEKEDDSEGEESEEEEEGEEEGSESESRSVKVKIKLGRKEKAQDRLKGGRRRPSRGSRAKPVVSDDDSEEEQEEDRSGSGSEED
# PROCEDURE_SUMMARY: DNA-dependent ATPase assay
# Format: biochemical
QUANTITY_MEASURED: pIC50
Conceptually, pIC50 converts a concentration in mol/L into minus its log10.

Record lookup: for SMARCA4 (Homo sapiens), what pIC50 belongs to CN(C)S(=O)(=O)c1cccc(C(=O)NCC(=O)Nc2nc(-c3ccccc3)cs2)c1 [FHT-185] ?
5.22

---

Reported values: pIC50 for SMARCA2 (Homo sapiens, UniProt P51531), one per item.
Conceptually, pIC50 converts a concentration in mol/L into minus its log10.

Looking for the measured pIC50 of `CN(C)S(=O)(=O)c1cccc(C(=O)NCC(=O)Nc2nc(-c3ccccc3)cs2)c1` , can you help?
5.60

From here, focus on the item given below.
Looking for the measured pIC50 of `COC[C@H](NC(=O)c1ccn(S(C)(=O)=O)c1)C(=O)Nc1nc(-c2cccc(-c3ccn(C)n3)c2)cs1` , can you help?
7.89

---

# TEST_SYSTEM: UniProt:P51532
# PROCEDURE_SUMMARY: DNA-dependent ATPase assay
# Type: biochemical
# CONDITIONS_USED: DNA-stimulated ATPase
QUANTITY_MEASURED: pIC50
Conceptually, pIC50 converts a concentration in mol/L into minus its log10.

Record lookup: for UniProt:P51532, what pIC50 belongs to `COC[C@H](NC(=O)c1ccn(S(C)(=O)=O)c1)C(=O)Nc1nc(-c2cccc(-c3ccn(C)n3)c2)cs1` ?
7.59
